Target: Beta-secretase 1 (Homo sapiens)
Sequence (P56817 whole entry): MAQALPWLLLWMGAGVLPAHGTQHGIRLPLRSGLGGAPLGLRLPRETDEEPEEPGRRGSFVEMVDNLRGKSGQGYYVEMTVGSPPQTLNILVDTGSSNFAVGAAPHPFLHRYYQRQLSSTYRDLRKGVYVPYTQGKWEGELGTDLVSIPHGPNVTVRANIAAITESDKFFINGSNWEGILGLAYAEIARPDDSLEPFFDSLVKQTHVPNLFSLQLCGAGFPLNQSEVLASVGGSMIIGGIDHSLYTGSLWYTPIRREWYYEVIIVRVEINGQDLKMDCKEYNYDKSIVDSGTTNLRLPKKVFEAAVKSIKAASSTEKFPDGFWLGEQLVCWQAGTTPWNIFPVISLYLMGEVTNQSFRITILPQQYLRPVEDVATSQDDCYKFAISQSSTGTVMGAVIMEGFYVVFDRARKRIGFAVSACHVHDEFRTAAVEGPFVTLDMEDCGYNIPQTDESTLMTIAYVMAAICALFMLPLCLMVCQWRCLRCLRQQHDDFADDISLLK
Assay: Inhibition of human recombinant BACE1 at 0.2 uM by FRET assay
Listing: inhibition of selected compounds
Quick reminder: number only, in %, skip the unit.

Field: example entries. Status: answers known.
smiles_input	inhibition [%]
CC(C)[C@H](NC(=O)[C@@H](N)CNC(=O)c1cc(O)ccc1O)C(=O)N[C@@H](CC1CCCCC1)C(=O)N[C@@H](Cc1ccccc1)[C@@H](O)C(=O)NC1(c2ccccc2)CCCC1	58
CC(C)[C@H](NC(=O)[C@@H](N)CNC(=O)c1cc(O)ccc1O)C(=O)N[C@@H](CC1CCCCC1)C(=O)N[C@@H](Cc1ccccc1)[C@@H](O)C(=O)N[C@@H](C)c1ccccc1	54
CC(C)[C@H](NC(=O)[C@@H](N)CNC(=O)c1cc(O)ccc1O)C(=O)N[C@@H](CC1CCCCC1)C(=O)N[C@@H](Cc1ccccc1)[C@@H](O)C(=O)NC1(c2ccccc2)CCCCC1	46
CC(C)[C@H](NC(=O)[C@@H](N)CNC(=O)c1[nH]c(=O)[nH]c(=O)c1F)C(=O)N[C@@H](CC1CCCCC1)C(=O)N[C@@H](Cc1ccccc1)[C@@H](O)C(=O)NC1(c2ccccc2)CCN(Cc2ccccc2)CC1	64

Lab note: next compound to report on.
Entry under test: CC(C)[C@H](NC(=O)[C@@H](N)CNC(=O)c1[nH]c(=O)[nH]c(=O)c1F)C(=O)N[C@@H](CC1CCCCC1)C(=O)N[C@@H](Cc1ccccc1)[C@@H](O)C(=O)N[C@H](C)c1ccccc1 . Its inhibition was 79
